measured_on: T1, SARS-CoV-2 Receptor Binding Domain (RBD) protein (SARS-CoV-2, UniProt P0DTC2 319-541)
T1 construct: also called Sars-Cov-2 (COV2)
measurement_description: SPR (Carterra LSA)
Kd overview

# input binder: COVID19_P01_B08 (scFv, V domains shown) VH: QVQLVQSGAEVKKPGSSVKVSCKASGGTFSNFAITWVRQAPGQGLEWMGVINPGGGSTTYAQTFQGRVTITADESTSTAYMELSSLRSEDTAVYYCARDTVMGGMDVWGQGTLVTVSS VL: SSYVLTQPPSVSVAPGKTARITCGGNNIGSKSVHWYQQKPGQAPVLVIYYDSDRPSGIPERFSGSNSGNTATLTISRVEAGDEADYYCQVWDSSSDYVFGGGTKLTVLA ; wanted: its Kd
< 50 nM

If you can, please state the reported Kd value of COVID19_P14_D07 (scFv, V domains shown) VH: QVQLVQSGAEVKKPGSSVKVSCKASGYTFSSFYIHWVRQAPGQGLEWMGGIIPIFGEAEYAHKFQGRVTITADESTSTAYMELSSLRSEDTAVYYCAMETVMGGMDVWGQGTLVTVSS VL: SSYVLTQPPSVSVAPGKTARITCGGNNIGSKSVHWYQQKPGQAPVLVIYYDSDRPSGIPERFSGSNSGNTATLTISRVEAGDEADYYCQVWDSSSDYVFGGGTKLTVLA .
< 50 nM

Can you share its Kd? I mean this binder: COVID19_P14_B07 (scFv, V domains shown) VH: QVQLVQSGAEVKKPGSSVKVSCKASGYTFTSYGISWVRQAPGQGLEWMGWINPNSGGTNYAQKFQGRVTITADESTSTAYMELSSLRSEDTAVYYCAVETVMGGFTVWGQGTLVTVSS VL: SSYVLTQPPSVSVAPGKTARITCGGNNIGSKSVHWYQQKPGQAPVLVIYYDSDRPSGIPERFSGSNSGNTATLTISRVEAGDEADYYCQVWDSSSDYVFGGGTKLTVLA
< 50 nM
